- Method description: Quantitative High-Throughput drug screen in 47 multiple myeloma cell lines against the NCATS MIPE library collection: KMS34_JCRB cell viability assay (AID 1918985); further: nearly all actives have a fitted effect of over 40% in size
- Condition context: KMS34 myeloma viability, CellTiter-Glo ATP luminescence, 48 h; series mostly up to 45.8 µM
Records with an inconclusive call do not appear. Calls of active or inactive are those of the source. The call rests on the fitted dose curve; in most records, active means well fitted cell-killing curve with a large enough effect; inconclusive means small, poorly fitted or top-dose-only effect, or effect the other way; inactive means no such curve, though single readings can be large or run the other way.
Outcomes: YES (active), NO (inactive)

# Compound, Qualitative label
data = [
    ("O=C(O)c1ccc(-c2c[nH]c3ncc(-c4ccccc4)cc23)cc1C1CCCC1", "YES"),
    ("O=C(NCc1ccccc1)c1csc(Nc2ccncn2)n1", "YES"),
    ("O=C1C(Cl)=C(NCCN2CCOCC2)C(=O)c2ncccc21", "YES"),
    ("CCCCCNC(=O)N1CCC(CN(Cc2ccc(Cl)cc2)Cc2ccc([N+](=O)[O-])s2)C1 (stereo not drawn)", "YES"),
    ("CC(C(=O)O)c1ccc(-c2ccccc2)c(F)c1 (stereo not drawn)", "NO"),
    ("O=C1c2ccccc2-[n+]2ccc3c([nH]c4ccccc43)c21", "YES"),
    ("COc1ccc(-c2cc(=O)c3c(O)cc(O)cc3o2)cc1O", "YES"),
    ("CC(C)(C)c1cc(C(=O)O)c(NC(=O)Nc2ccc3[nH]ncc3c2)s1", "NO"),
    ("Cc1ccccc1C(C(=O)NC1CCCCC1)N(C(=O)Cn1ccnc1C)c1cccc(F)c1 (stereo not drawn)", "YES"),
    ("CCn1c(C(=O)N(C2CC2)C2CC2)cc2c3c(ncn3C)c(Nc3cc(C)n(C)n3)nc21", "NO"),
    ("Cc1cnc(C(=O)O)c[n+]1[O-]", "YES"),
    ("CC(C)(C(=O)NCC(F)(F)C(F)(F)F)C(=O)N[C@@H]1C(=O)Nc2ccccc2-c2ccccc21", "NO"),
    ("N[C@@]1(C(=O)O)CS(=O)(=O)[C@H]2[C@H](C(=O)O)[C@H]21", "NO"),
    ("O=C(O)c1ccc(-c2cc3cccnc3c(-c3ccc4nonc4c3)n2)cc1", "YES"),
    ("CC(=O)OC1C(C)OC(Oc2c(-c3ccc(O)cc3)oc3cc(O)cc(O)c3c2=O)C(O)C1OC(C)=O (stereo not drawn)", "NO"),
    ("CCS(=O)(=O)N1CC(CC#N)(n2cc(-c3ncnc4[nH]ccc34)cn2)C1", "YES"),
    ("Cc1ccc(C(=O)Nc2cccc(C(F)(F)F)c2)cc1Nc1nc(-c2cccnc2)nc2c1cnn2C", "YES"),
    ("Cc1ccc(F)c(NC(=O)Nc2ccc(-c3cccc4[nH]nc(N)c34)cc2)c1", "YES"),
    ("CC#CCn1c(N2CCC[C@@H](N)C2)nc2c1c(=O)n(Cc1nc(C)c3ccccc3n1)c(=O)n2C", "YES"),
    ("Nc1ncnc2c1nc(Cl)n2[C@@H]1O[C@H](CO)[C@@H](O)[C@@H]1O", "YES"),
    ("CCC(CC)[C@H](NC(C)=O)[C@@H]1[C@H](O)[C@@H](C(=O)O)C[C@@H]1N=C(N)N", "NO"),
    ("c1cc(-c2sc(-c3ccncc3)c(-c3ccncc3)c2-c2ccncc2)ccn1", "NO"),
    ("COc1cc2ncnc(Nc3ccc(F)c(Cl)c3)c2cc1OCCCN1CCOCC1", "YES"),
    ("Cc1c(O)cccc1C(=O)N[C@@H](CSc1ccccc1)[C@H](O)CN1C[C@H]2CCCC[C@@H]2C[C@@H]1C(=O)NC(C)(C)C", "YES"),
    ("CN(C)CCC=C1c2ccccc2COc2ccc(CC(=O)O)cc21", "NO"),
    ("OC[C@H]1O[C@@H](Oc2cc(O)cc(C=Cc3ccc(O)cc3)c2)[C@H](O)[C@@H](O)[C@H]1O", "NO"),
    ("COc1ccc(-c2oc3c(CC=C(C)C)c(OC4O[C@H](CO)[C@@H](O)[C@H](O)[C@@H]4O)cc(O)c3c(=O)c2OC2O[C@@H](C)[C@H](O)[C@@H](O)[C@@H]2O)cc1 (stereo partly drawn)", "YES"),
    ("C[N+](C)(C)CC(=O)O", "NO"),
    ("COc1ccc(-c2coc3cc(O)cc(O)c3c2=O)cc1", "NO"),
    ("CC[C@@]1(O)C[C@H](O[C@H]2C[C@H](N(C)C)[C@H](O[C@H]3C[C@H](O)[C@H](O[C@H]4CCC(=O)[C@H](C)O4)[C@H](C)O3)[C@H](C)O2)c2c(cc3c(c2O)C(=O)c2c(O)cccc2C3=O)[C@@H]1C(=O)OC", "YES"),
    ("O=c1c(O)c(-c2ccc(O)cc2)oc2cc(O)cc(O)c12", "NO"),
    ("O=c1cc(-c2ccccc2)oc2cc(O)cc(O)c12", "NO"),
    ("CO[C@H]1C=CC=C(C)C(=O)NC2=CC(=O)C(NCCN(C)C)=C(C[C@@H](C)C[C@H](OC)[C@@H](O)[C@@H](C)C=C(C)[C@@H]1OC(N)=O)C2=O", "YES"),
]

Entry source: PubChem BioAssay (NCATS)
